The measured values listed here are drawn from patent US8268862B2.

Molecular target: SIRT1 (Homo sapiens, UniProt Q96EB6)
Sequence (Q96EB6 1-747): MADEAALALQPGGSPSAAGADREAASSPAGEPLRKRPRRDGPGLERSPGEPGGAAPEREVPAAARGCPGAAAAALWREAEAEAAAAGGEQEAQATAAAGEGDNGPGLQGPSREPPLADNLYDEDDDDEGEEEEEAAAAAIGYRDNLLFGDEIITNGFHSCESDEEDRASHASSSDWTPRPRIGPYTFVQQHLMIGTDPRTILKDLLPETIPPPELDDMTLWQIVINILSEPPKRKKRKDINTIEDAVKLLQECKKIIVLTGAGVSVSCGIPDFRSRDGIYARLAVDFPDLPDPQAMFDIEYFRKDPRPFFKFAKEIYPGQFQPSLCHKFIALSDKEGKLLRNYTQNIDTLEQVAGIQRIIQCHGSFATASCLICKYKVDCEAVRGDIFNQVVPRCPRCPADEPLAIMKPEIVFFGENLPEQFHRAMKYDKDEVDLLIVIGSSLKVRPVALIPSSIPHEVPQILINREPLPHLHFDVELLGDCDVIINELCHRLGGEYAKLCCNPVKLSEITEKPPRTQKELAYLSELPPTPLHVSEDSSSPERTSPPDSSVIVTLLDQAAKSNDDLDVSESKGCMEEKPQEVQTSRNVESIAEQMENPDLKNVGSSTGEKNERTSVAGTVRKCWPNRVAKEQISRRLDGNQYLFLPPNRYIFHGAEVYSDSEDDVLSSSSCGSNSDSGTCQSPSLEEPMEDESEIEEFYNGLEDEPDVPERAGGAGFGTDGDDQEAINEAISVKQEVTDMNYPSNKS
Test: mass spectrometry based SIRT1 deacetylation assay (activation)
Type: biochemical
Details: 0.5 μM peptide substrate, 120 μM βNAD+, 10 nM SIRT1, 25 min at 25° C.; read-out: % FOLD ACT. (percent maximum fold activation of SIRT1)
parameter: Emax (%)

Data request: Fill blank: measured Emax of the molecule Cc1cc(C(=O)Nc2ccccc2-c2nc3cc(CN4CCCC4)cnc3s2)nc(-c2ccccc2)n1 is ____.
Data returned: 274

I: O=C(Nc1ccccc1-c1nc2cc(CN3CCC(F)(F)C3)cnc2s1)c1ccc2ccccc2n1
II: NC1CCN(Cc2cnc3sc(-c4ccccc4NC(=O)c4cccc(-c5cccnc5)c4)nc3c2)CC1
III: O=C(Nc1ccccc1-c1nc2cc(CN3CCOCC3)cnc2s1)c1cccc(-c2ncccn2)c1
IV: O=C(Nc1ccccc1-c1nc2cc(CN3CCOCC3)cnc2s1)c1cccc(-c2cccc(F)c2)c1
Data request: Ordering criterion: Emax; begin with the maximum. List the labels, following the order given in the request.
Data returned: II, III, IV, I

A: O=C(Nc1ccccc1-c1nc2cc(CN3CC[C@@H](F)C3)cnc2s1)c1cccc(-c2ccc[n+]([O-])c2)c1
B: NC1CCN(Cc2cnc3sc(-c4ccccc4NC(=O)c4cccc(-c5ccncc5)c4)nc3c2)CC1
Data request: # return whichever of A and B has the smaller Emax Answer with the label corresponding to your selection.
Data returned: A

###

Target: SIRT1 (Homo sapiens)
Assay: mass spectrometry based SIRT1 deacetylation assay (activation)
Assay type: biochemical
Conditions: 0.5 μM peptide substrate, 120 μM βNAD+, 10 nM SIRT1, 25 min at 25° C.; read-out: % FOLD ACT. (percent maximum fold activation of SIRT1)
parameter: Emax (%)

Data request: Could you share which Emax value was measured for O=C(Nc1ccccc1-c1nc2ccc(CN3CCNCC3)nc2s1)c1cnc2ccccc2n1 [Compound 66] ?
Data returned: 336

Data request: Query (compound): O=C(Nc1ccccc1-c1nc2cc(CN3CCCC3)cnc2s1)c1ccn(-c2ccccc2)n1 [Compound 154] ; field requested: Emax
Data returned: 277
